# Test system: VchCAST RNA-guided transposition machinery (E. coli BL21(DE3) host, lacZ target)
# EXPERIMENT_SUMMARY: relative integration efficiency (T-LR orientation) vs wild-type transposon end (log2 (normalized fold change)); transposon end mutated: left end; higher = more efficient transposition
Reported relative integration efficiency (log2) is given for each of the following sequences.
Form rule: numeric answer, no unit written next to it.

Below, each entry is followed by its recorded relative integration efficiency (log2) result.
[[record]]
construct_sequence = "AATGTTGTTGATGCAACCATAAAGTGATATTTAATAATTATTTATAATCAGCAACTTAAAACACCCCACCAACGCGCGGTCGCGAGACACCCCACCAACGCCTGGTCGCGGGGGTGTCCGATCTGATTTCAGCAAAACTACTGCAGTAAGAA"
target_under_test = "VchCAST RNA-guided transposition machinery (E. coli BL21(DE3) host, lacZ target)"
result_value = -3.63

[[record]]
construct_sequence = "AATGTTGTTGATGCAACCATAAAGTGATATTTAATAATTAGGGCGCCGACTACCAGGCCAACACCCCACCAACGCGCGGTCGCGAGACACCCCACCAACGCCTGGTCGCGGGGGTGTCCGATCTGATTTCAGCAAAACTACTGCAGTAAGAA"
target_under_test = "VchCAST RNA-guided transposition machinery (E. coli BL21(DE3) host, lacZ target)"
result_value = -4.57


Switching to the query record.
stdin: // lookup relative integration efficiency (log2) for AATGTTGTTGATGCAACCATAAAGTGATATTTAATAATTATTTATAATCAGCAACTTAACCACAAAACAACCATAAAGTGATATTTAACAAAAGTTGGTATTCAACTATAAAATGTGAATCGAGTATTTCAGCAAAACTACTGCAGTAAGAA
stdout: -0.811

====

# Tested on: VchCAST RNA-guided transposition machinery (E. coli BL21(DE3) host, lacZ target)
# EXPERIMENT_SUMMARY: relative integration efficiency (T-RL orientation) vs wild-type transposon end (log2 (normalized fold change)); transposon end mutated: right end (5 bp flank + 75 bp right end); higher = more efficient transposition
Note to self: values exactly at -2 are 1 (yes). So relative integration efficiency (log2) at or above -2 is 1 (yes), below is 0 (no).

Solved entries:
[[record]]
construct_sequence = "ACATTTGTTGATACAACCATAAAATGATAATTAGACCCCATAATTGATAATTATCACACCCATAAATTGATATTGCCTCTGATCATAGTCAGACCAACATTGCTACGACCCGTATTCGCACCGACAC"
label_class = "0 (no)"

[[record]]
construct_sequence = "ACATTTGTCGATACAACCATAAAATGATAATTACACCCATAAATTCATAATTATCACCCCCAATTTAACTATAACGCTCTGATCATAGTCAGACCAACATTGCTACGACCCGTATTCGCACCGACAC"
label_class = "1 (yes)"

[[record]]
construct_sequence = "ACATTTGTTGATACAACCATAAAATGATCATTACACCCATAAATTGATCATTATCACACCCATAAATTGATCTTGCCTCTGATCATAGTCAGACCAACATTGCTACGACCCGTATTCGCACCGACAC"
label_class = "1 (yes)"

[[record]]
construct_sequence = "ACATTTGTTGATACAACCATAAAATGATAATTAATCACCCATAAATTGATAATTATCAACAAACGCCCGGTCGCGGTACTCTGATCATAGTCAGACCAACATTGCTACGACCCGTATTCGCACCGAC"
label_class = "1 (yes)"

[[record]]
construct_sequence = "ACATTTGTTGATACAACCATAAAAGGATAATTACCCCCATAAATTGATAATTATCCCACCCCATTTAACTATAACGCTCTGATCATAGTCAGACCAACATTGCTACGACCCGTATTCGCACCGACAC"
label_class = "1 (yes)"

[[record]]
construct_sequence = "ACATTTGTTCATACAACCATAAAATGATAATTACACCCATAAATTGATCATTATCACACCCAATTTAACTATAACGCTCTGATCATAGTCAGACCAACATTGCTACGACCCGTATTCGCACCGACAC"
label_class = "1 (yes)"

[[record]]
construct_sequence = "ACATTTGTTGATACAACCATATATTGATATCTCCAACCATATATTGATATCTCTCACACCCATAAATTGATAATTACTCTGATCATAGTCAGACCAACATTGCTACGACCCGTATTCGCACCGACAC"
label_class = "1 (yes)"

[[record]]
construct_sequence = "ACATTTGTTGATATAATTATCATTTTATGGTTGCAACCATAAAATGATAATTATGATAATTATCATTTTATGGTTGCTCTGATCATAGTCAGACCAACATTGCTACGACCCGTATTCGCACCGACAC"
label_class = "0 (no)"

[[record]]
construct_sequence = "ACATTTGTTGATACAACCATAAAATGATAATTACAACCATAAAATGATAATTATCATAATTATCATTTTATGGTTGCTCTGATCATAGTCAGACCAACATTGCTACGACCCGTATTCGCACCGACAC"
label_class = "1 (yes)"

[[record]]
construct_sequence = "ACATTTGTTGATACAACCATAAAATGATAATTAATAATTATTTATAATCAGCACACCCATAAATTGATAATTATCAACAAACGCCCGGTCGCGGTACTCTGATCATAGTCAGACCAACATTGCTACG"
label_class = "0 (no)"


Please look at the following sequence next.
stdin: Does the reported relative integration efficiency (log2) for ACATTGGTTCATACAACCATAAAATGATAATTACACCCATAAATGGATAATTATCACACCCAATTTAACTATAACGCTCTGATCATAGTCAGACCAACATTGCTACGACCCGTATTCGCACCGACAC fall at or above the -2 mark?
stdout: 0 (no)

Just for reference, the supplement of paper PMC10201428 is where these values come from.
